molecular target: NAALADase (Homo sapiens, UniProt Q04609); experiment: In vitro inhibition of NAALADase activity; type: biochemical; conditions: read-out: IC50
Sequence (Q04609 whole entry): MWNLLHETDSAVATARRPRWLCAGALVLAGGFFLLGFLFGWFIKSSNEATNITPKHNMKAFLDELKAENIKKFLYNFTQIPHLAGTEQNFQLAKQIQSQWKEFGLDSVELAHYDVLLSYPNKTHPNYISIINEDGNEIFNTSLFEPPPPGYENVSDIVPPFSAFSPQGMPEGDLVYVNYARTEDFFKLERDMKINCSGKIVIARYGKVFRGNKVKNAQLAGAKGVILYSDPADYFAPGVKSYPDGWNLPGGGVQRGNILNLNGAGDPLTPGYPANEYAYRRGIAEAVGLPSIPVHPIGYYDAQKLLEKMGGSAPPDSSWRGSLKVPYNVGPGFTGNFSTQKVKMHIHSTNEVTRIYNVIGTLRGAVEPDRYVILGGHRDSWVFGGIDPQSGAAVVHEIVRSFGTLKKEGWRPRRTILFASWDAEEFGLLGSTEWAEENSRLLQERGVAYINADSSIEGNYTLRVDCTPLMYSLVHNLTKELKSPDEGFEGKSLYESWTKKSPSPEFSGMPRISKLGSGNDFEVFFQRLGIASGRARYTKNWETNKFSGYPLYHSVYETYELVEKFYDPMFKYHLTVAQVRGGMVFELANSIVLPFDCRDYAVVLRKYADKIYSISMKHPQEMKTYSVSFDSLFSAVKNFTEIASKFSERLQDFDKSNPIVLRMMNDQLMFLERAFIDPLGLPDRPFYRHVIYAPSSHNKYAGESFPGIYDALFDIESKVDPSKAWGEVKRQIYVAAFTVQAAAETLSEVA
Measured IC50 values are reported for all entries that follow.

Sample answers from the record:
Compound: O=C(O)c1ccc(Cl)c(OC(CCCS)C(=O)O)c1 (centres unmarked)
Measurement kind: IC50
Reported result: 118 nM
--
Compound: O=C(O)c1ccc(-c2ccccc2)c(CC(CCCS)C(=O)O)c1 (centres unmarked)
Measurement kind: IC50
Reported result: 19 nM
--
Compound: O=C(O)c1ccccc1Oc1cccc(CC(CCCS)C(=O)O)c1 (centres unmarked)
Measurement kind: IC50
Reported result: 49 nM
--
Compound: Cc1ccc(C(=O)c2ccccc2C(=O)NO)cc1 [N-Hydroxy-2-(4-methyl-benzoyl)-benzamide]
Measurement kind: IC50
Reported result: ≥ 100000 nM
--
Compound: O=C(O)C(CCCS)Oc1cccc(O)c1 (centres unmarked)
Measurement kind: IC50
Reported result: 846 nM
--
Compound: O=C(O)c1ccccc1CCS
Measurement kind: IC50
Reported result: 613 nM

Exercise: What is its IC50 for NAALADase (Homo sapiens, UniProt Q04609)? Entry: CC(C)(C)c1cc(CC(CCSCC(=O)NO)C(=O)O)cc(C(=O)O)c1 (centres unmarked)
Key: 1060 nM

Exercise: Now try "O=C(O)c1ccc(COc2ccc(CCS)c(C(=O)O)c2)cc1" .
Key: 71.5 nM

Exercise: Now try CCC(SCCC(Cc1cccc(C(=O)O)c1)C(=O)O)C(=O)NO (centres unmarked) .
Key: 19000 nM

Exercise: Now try O=C(CSCCCC(Cc1cc(C(=O)O)cc(-c2ccccc2)c1)C(=O)O)NO (centres unmarked) .
Key: 1690 nM

Exercise: Now try O=C(CCC(Cc1cccc(C(=O)O)c1)C(=O)O)NO (centres unmarked) .
Key: 47.8 nM

Cited source: patent US20040186081A1
